Target: Serine/threonine-protein kinase STK11 (Homo sapiens) (UniProt Q15831)
Sequence (Q15831 whole entry): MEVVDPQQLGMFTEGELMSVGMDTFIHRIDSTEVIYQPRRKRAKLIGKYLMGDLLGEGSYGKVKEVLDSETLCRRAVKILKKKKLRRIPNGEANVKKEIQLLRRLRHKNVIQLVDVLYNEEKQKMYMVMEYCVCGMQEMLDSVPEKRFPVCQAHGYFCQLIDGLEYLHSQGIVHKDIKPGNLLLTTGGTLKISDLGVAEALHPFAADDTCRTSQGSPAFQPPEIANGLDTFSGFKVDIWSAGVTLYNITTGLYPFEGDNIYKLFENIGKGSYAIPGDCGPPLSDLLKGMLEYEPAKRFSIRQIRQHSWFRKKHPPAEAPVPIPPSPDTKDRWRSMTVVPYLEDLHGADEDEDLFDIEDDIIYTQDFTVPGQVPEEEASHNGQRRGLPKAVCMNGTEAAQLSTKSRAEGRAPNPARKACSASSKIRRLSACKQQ
Conditions: at 10 µM
quantity.kind: residual activity (%)
Write the answer as a number in %, unit excluded.

CN(C)CCCn1cc(C2=C(c3c[nH]c4ccccc34)C(=O)NC2=O)c2ccccc21 :: 102

Endpoint output: residual activity of O=C1Nc2ccc(Br)cc2/C1=C\c1cc2c([nH]1)CCCC2 . Value?
99

Endpoint output: residual activity of CNc1cc2c(Nc3cccc(Br)c3)ncnc2cn1 . Value?
95

Endpoint output: residual activity of O=C1Nc2cc(Br)ccc2/C1=C1/Nc2ccccc2/C1=N\O . Value?
81

###

Reported residual activity values for a set of compounds
Target: PAS domain-containing serine/threonine-protein kinase (Homo sapiens) (UniProt Q96RG2)
Sequence (Q96RG2 whole entry, the tested form may be a part): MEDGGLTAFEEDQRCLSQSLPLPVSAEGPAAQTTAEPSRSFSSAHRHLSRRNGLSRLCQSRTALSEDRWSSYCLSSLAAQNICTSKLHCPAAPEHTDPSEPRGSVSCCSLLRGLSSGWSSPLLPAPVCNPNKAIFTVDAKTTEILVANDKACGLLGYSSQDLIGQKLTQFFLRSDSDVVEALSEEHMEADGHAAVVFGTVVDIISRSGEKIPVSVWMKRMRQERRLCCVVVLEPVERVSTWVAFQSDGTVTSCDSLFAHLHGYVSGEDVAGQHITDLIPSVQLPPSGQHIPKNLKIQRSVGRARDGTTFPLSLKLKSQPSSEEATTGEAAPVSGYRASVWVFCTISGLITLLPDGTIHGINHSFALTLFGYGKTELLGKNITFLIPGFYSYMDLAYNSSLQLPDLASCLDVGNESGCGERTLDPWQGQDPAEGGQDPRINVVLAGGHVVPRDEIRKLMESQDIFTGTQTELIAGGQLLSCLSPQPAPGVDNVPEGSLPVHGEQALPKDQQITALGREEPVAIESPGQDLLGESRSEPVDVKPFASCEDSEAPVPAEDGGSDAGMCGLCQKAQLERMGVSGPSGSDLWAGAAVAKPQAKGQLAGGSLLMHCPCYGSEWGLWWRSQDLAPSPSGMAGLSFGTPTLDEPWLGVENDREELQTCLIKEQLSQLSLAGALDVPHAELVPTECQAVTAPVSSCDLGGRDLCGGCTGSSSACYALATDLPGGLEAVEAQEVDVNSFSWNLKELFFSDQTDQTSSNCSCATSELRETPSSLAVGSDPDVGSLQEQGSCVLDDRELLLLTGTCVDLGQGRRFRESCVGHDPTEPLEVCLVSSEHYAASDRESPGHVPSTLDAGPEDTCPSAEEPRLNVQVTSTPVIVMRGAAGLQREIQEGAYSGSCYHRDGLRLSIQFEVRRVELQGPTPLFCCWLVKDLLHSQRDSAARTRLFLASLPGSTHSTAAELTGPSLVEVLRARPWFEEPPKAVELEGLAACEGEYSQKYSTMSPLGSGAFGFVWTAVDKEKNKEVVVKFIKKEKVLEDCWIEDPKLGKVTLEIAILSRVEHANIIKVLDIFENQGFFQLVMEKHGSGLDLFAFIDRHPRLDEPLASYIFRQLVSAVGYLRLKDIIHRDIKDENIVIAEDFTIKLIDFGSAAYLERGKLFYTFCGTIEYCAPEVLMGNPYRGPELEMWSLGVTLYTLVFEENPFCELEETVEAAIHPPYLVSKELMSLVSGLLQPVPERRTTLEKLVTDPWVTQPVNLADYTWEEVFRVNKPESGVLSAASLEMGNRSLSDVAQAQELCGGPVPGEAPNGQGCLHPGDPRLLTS
Settings: at 10 µM
Write the answer as a number in %, unit excluded.

Some entries whose results are on file:
N#Cc1cnc2cnc(NCc3cccnc3)cc2c1Nc1ccc(F)c(Cl)c1 :: 63
O=C1Nc2cc(Br)ccc2/C1=C1/Nc2ccccc2/C1=N\O :: 115
C[C@@H](N)[C@H]1CC[C@H](C(=O)Nc2ccncc2)CC1 :: 85

Endpoint output: residual activity of Oc1n[nH]c2nnc(-c3c(-c4ccccc4)nn4ccccc34)cc12 . Value?
104

Endpoint output: residual activity of O=C1NC(=O)/C(=C\c2ccc3nccnc3c2)S1 . Value?
11

###

Reported residual activity values for a set of compounds
Molecular target: Tyrosine-protein kinase Fer (Homo sapiens) (UniProt P16591)
Sequence (P16591 whole entry, looked up): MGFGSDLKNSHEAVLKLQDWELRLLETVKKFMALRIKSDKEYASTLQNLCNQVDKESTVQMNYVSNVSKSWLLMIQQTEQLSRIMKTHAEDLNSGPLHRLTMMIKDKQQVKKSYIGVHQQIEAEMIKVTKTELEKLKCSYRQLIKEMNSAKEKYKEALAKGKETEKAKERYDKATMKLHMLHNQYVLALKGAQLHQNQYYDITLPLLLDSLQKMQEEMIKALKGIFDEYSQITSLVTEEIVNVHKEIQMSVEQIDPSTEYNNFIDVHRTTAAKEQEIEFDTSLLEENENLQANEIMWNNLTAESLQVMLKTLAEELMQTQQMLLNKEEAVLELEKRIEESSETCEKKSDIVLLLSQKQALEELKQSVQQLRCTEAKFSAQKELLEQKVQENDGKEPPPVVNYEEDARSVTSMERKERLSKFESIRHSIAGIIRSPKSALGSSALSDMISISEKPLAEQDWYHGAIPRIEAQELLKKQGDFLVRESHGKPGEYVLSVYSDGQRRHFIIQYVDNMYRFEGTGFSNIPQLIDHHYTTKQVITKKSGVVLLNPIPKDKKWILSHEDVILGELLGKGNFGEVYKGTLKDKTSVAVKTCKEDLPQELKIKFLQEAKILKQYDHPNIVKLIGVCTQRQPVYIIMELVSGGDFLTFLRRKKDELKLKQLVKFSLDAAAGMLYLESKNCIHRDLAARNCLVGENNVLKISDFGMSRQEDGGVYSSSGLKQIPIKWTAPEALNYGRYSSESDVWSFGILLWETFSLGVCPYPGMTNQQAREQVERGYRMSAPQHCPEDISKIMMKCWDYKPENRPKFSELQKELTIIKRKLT
Conditions: at 10 µM
Write the answer as a number in %, unit excluded.

Some entries whose results are on file:
CO[C@H]1C[C@@H]2CC[C@@H](C)[C@@](O)(O2)C(=O)C(=O)N2CCCC[C@H]2C(=O)O[C@H]([C@H](C)C[C@@H]2CC[C@@H](O)[C@H](OC)C2)CC(=O)[C@H](C)/C=C(\C)[C@@H](O)[C@@H](OC)C(=O)[C@H](C)C[C@H](C)/C=C/C=C/C=C/1C :: 95
CC(C)n1cnc2/c(=N/c3cccc(Cl)c3)nc(NCCO)[nH]c21 :: 47
Oc1c2ccccc2c2c3c(cccc13)N=N2 :: 51
CC(C)n1cnc2c(NCc3ccccc3)nc(NCCCO)nc21 :: 103
O=C(O)c1ccc2c3c1cccc3c(=O)n1c3ccccc3nc21 :: 5

Give the reported residual activity for O=C1Nc2ccccc2/C1=C1/Nc2ccccc2/C1=N\OCCC(O)CO (configuration not stated) (system: Tyrosine-protein kinase Fer (Homo sapiens) (UniProt P16591)).
35

Give the reported residual activity for COc1ccc(S(=O)(=O)N(CCO)c2ccccc2CN(C)C/C=C/c2ccc(Cl)cc2)cc1 (system: Tyrosine-protein kinase Fer (Homo sapiens) (UniProt P16591)).
91

Give the reported residual activity for CCC(=O)Nc1ccc2ncnc(Nc3cccc(Br)c3)c2c1 (system: Tyrosine-protein kinase Fer (Homo sapiens) (UniProt P16591)).
91

Give the reported residual activity for O=C1c2ccccc2-[n+]2ccc3c([nH]c4ccccc43)c21 (system: Tyrosine-protein kinase Fer (Homo sapiens) (UniProt P16591)).
90

###

Molecular target: Glycogen synthase kinase-3 beta (Homo sapiens) (UniProt P49841)
Sequence (P49841 whole entry, looked up): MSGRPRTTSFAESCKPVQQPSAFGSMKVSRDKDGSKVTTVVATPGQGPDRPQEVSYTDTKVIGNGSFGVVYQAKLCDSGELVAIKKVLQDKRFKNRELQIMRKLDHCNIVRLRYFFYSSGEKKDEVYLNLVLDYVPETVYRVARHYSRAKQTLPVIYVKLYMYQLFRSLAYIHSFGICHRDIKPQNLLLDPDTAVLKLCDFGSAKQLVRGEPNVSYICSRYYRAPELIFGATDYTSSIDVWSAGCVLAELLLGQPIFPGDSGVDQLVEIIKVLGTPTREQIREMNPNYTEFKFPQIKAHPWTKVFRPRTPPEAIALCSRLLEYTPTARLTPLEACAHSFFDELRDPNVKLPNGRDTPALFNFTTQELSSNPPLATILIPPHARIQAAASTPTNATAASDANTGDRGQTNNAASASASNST
Details: at 10 µM
Reported residual activity values for a set of molecules
Write the answer as a number in %, unit excluded.

Give the reported residual activity for O=C1c2ccccc2-[n+]2ccc3c([nH]c4ccccc43)c21 (system: Glycogen synthase kinase-3 beta (Homo sapiens) (UniProt P49841)).
103

Give the reported residual activity for Oc1n[nH]c2nnc(-c3c(-c4ccccc4)nn4ccccc34)cc12 (system: Glycogen synthase kinase-3 beta (Homo sapiens) (UniProt P49841)).
106

Give the reported residual activity for Nc1ccc2ncnc(NCCc3ccc(Oc4ccccc4)cc3)c2c1 (system: Glycogen synthase kinase-3 beta (Homo sapiens) (UniProt P49841)).
119

###

Target: Ephrin type-A receptor 7 (Homo sapiens)
Details: at 1 µM
Rule: residual activity of 90% or more gives T; anything lower gives F.

Field: example entries. Status: answers known.
O=c1cc(-c2cccc3c2Sc2ccccc2S3)oc(N2CCOCC2)c1 :: T
O=C1Nc2cc(Br)ccc2/C1=C1/Nc2ccccc2/C1=N\O :: F
O=C1Nc2ccccc2/C1=C1/Nc2ccccc2/C1=N\OCCC(O)CO (stereo not drawn) :: F

Evaluate Oc1ccc(Nc2nc(-c3ccc(Cl)cc3)cs2)cc1 : residual activity at minimum 90%?
T

Evaluate CN(C)CCCn1cc(C2=C(c3c[nH]c4ccccc34)C(=O)NC2=O)c2ccccc21 : residual activity at minimum 90%?
T

Evaluate Oc1n[nH]c2nnc(-c3c(-c4ccccc4)nn4ccccc34)cc12 : residual activity at minimum 90%?
T

###

Reported residual activity values for a set of molecules
Target: Rho-associated protein kinase 2 (Homo sapiens) (UniProt O75116)
Sequence (O75116 whole entry, looked up): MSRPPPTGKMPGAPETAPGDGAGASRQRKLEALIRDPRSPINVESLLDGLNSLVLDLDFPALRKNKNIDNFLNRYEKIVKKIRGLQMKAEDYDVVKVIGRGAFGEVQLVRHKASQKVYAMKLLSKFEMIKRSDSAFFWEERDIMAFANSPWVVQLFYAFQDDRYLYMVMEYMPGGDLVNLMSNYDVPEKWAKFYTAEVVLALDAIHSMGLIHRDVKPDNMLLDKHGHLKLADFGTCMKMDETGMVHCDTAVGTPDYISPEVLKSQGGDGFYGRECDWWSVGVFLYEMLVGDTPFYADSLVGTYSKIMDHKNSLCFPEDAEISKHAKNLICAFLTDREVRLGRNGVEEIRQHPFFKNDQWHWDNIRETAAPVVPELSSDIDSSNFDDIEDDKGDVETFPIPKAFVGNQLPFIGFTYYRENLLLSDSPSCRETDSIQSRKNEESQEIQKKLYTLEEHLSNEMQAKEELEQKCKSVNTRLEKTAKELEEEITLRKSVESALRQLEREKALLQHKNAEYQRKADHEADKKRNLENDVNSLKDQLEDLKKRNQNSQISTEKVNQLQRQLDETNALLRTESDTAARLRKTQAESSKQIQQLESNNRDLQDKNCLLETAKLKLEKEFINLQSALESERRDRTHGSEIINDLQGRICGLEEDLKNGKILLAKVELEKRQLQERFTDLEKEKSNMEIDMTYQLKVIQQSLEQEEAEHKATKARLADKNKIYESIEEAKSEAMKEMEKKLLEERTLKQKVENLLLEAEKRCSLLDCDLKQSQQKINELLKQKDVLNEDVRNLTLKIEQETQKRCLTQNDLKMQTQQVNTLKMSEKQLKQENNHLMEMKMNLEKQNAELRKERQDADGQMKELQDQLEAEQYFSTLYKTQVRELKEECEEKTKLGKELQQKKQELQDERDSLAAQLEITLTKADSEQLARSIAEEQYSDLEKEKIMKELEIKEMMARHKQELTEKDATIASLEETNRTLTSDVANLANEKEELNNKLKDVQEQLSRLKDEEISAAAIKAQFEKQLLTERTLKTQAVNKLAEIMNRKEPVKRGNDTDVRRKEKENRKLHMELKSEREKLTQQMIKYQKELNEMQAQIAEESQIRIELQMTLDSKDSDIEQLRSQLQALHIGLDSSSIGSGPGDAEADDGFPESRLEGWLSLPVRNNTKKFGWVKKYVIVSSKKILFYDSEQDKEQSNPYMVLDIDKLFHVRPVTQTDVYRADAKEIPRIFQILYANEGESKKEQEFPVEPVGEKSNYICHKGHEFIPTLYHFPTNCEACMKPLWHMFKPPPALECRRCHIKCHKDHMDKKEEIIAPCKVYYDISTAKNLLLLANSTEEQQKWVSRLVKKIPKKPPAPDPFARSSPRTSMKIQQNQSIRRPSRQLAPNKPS
Conditions: at 1 µM
Write the answer as a number in %, unit excluded.

COc1ccc(CNc2nc(N(CCO)CCO)nc3c2ncn3C(C)C)cc1 :: 91

Endpoint output: residual activity of Cc1ccc(S(=O)(=O)/C=C/C#N)cc1 . Value?
89

Endpoint output: residual activity of CCC(=O)Nc1ccc2ncnc(Nc3cccc(Br)c3)c2c1 . Value?
89

Endpoint output: residual activity of O=C1Nc2cc(Br)ccc2/C1=C1/Nc2ccccc2/C1=N\O . Value?
90

Endpoint output: residual activity of CCOc1cc2ncnc(Nc3cccc(Br)c3)c2cc1OCC . Value?
91

Endpoint output: residual activity of O=C(O)c1ccc2c3c1cccc3c(=O)n1c3ccccc3nc21 . Value?
119

Endpoint output: residual activity of Nc1nc(Nc2ccc(S(N)(=O)=O)cc2)nn1C(=S)Nc1c(F)cccc1F . Value?
0

Endpoint output: residual activity of O=c1c2ccccc2[nH]c(=S)n1CCN1CCC(=C(c2ccc(F)cc2)c2ccc(F)cc2)CC1 . Value?
109

Endpoint output: residual activity of COc1cccc(-c2cc(=O)c3ccccc3o2)c1N . Value?
97

Endpoint output: residual activity of Oc1ccc(-c2nc(-c3ccc(F)cc3)c(-c3ccncc3)[nH]2)cc1 . Value?
95

Endpoint output: residual activity of CO[C@@H]1[C@H](N(C)C(=O)c2ccccc2)C[C@H]2O[C@]1(C)n1c3ccccc3c3c4c(c5c6ccccc6n2c5c31)C(=O)NC4 . Value?
79

Endpoint output: residual activity of O=[N+]([O-])c1ccc(-c2nc(-c3ccc(F)cc3)c(-c3ccncc3)[nH]2)cc1 . Value?
87

###

Reported residual activity values for a set of molecules
Biological target: Casein kinase I isoform delta (Homo sapiens)
Conditions: at 10 µM
Description: Millipore: Percentage of residual kinase activity of CSNK1D at 10uM relative to control. Control inhibitor: Jnk Inhibitor II at 100.0uM. Buffer: 8 mM MOPS pH 7.0, 0.2 mM EDTA
Write the answer as a number in %, unit excluded.

Oc1n[nH]c2nnc(-c3c(-c4ccccc4)nn4ccccc34)cc12 :: 54
CC[n+]1c(/C=C/N(C)c2ccccc2)n(-c2ccccc2)c2ccc(-c3nc4ccccc4s3)cc21 :: 93
O=C1NC(=O)c2c1c1c3ccccc3[nH]c1c1[nH]c3cc(Br)ccc3c21 :: 90
O=C1c2ccccc2-[n+]2ccc3c([nH]c4ccccc43)c21 :: 77
Cc1nc(-c2ccccc2)c(-c2ccncc2)o1 :: 8

Endpoint output: residual activity of CC(C)n1cnc2/c(=N/c3cccc(Cl)c3)nc(NCCO)[nH]c21 . Value?
7

Endpoint output: residual activity of N#Cc1cnc2cnc(NCc3cccnc3)cc2c1Nc1ccc(F)c(Cl)c1 . Value?
62

###

Reported residual activity values for a set of compounds
Target: Mitogen-activated protein kinase 11 (Homo sapiens)
Details: at 1 µM
Write the answer as a number in %, unit excluded.

Some entries whose results are on file:
O=C1NC(=O)/C(=C/c2ccc3c(c2)OC(F)(F)O3)S1 :: 98
Nc1cccc(-c2cc3c(Oc4cccc(O)c4)ncnc3[nH]2)c1 :: 28
O=C1NC(=O)c2cc(Nc3ccc(F)cc3)c(Nc3ccc(F)cc3)cc21 :: 95
Cc1ccc(NC2=CC(=O)c3sc(C)nc3C2=O)cc1 :: 102
COc1ccc(OC)c2c(=S)c3ccccc3[nH]c12 :: 112
O=C(Nc1cccc(Nc2cc(Nc3cccc(C(F)(F)F)c3)ncn2)c1)C1CC1 :: 92
N#C/C(=C(\N)Sc1ccc(N)cc1)c1ccccc1C(F)(F)F :: 104
CN(C)c1ccc(/C=C2\C(=O)Nc3ccccc32)cc1 :: 107

Endpoint output: residual activity of Nc1nc(Nc2ccc(S(N)(=O)=O)cc2)nn1C(=S)Nc1c(F)cccc1F . Value?
56

Endpoint output: residual activity of Cc1nc(-c2ccccc2)c(-c2ccncc2)o1 . Value?
105

Endpoint output: residual activity of O=C1NC(=O)c2c1c1c3ccccc3[nH]c1c1[nH]c3cc(Br)ccc3c21 . Value?
105

Endpoint output: residual activity of Cc1nc2cc3nc(-c4cccs4)cnc3cc2n1C . Value?
100

Endpoint output: residual activity of CN(C)CCCn1cc(C2=C(c3c[nH]c4ccccc34)C(=O)NC2=O)c2ccccc21 . Value?
106

Endpoint output: residual activity of N#Cc1cnc2cnc(NCc3cccnc3)cc2c1Nc1ccc(F)c(Cl)c1 . Value?
119

Endpoint output: residual activity of CO[C@H]1[C@@H](OC)C[C@H](C)[C@@H](OC)C2=CC(=O)C=C(NC(=O)/C(C)=C/C=C/[C@H](OC)[C@@H](OC(N)=O)/C(C)=C/[C@@H]1C)C2=O . Value?
98
